# System: Leishmania donovani
# Method Summary: In vitro for leishmanicidal activity against Leishmania donovani (PP75) at the concentration of 100 ug/mL.
# Format: functional, organism-based
Quantity: Activity

>>> reported_value("CCCCCCCCCCCCCCC(N)CNCC (stereo not given)")
"+"
>>> reported_value("CCCCCCCCCCCCCCC(CN(CC(=O)OCC)CC(=O)OCC)NC(=O)OC(C)(C)C (stereo not given)")
"80-90% lysis of parasites"
>>> reported_value("CCCCCCCCCCCCCCC(NC(=O)OC(C)(C)C)C(=O)O (stereo not given)")
"80-90% lysis of parasites"
>>> reported_value("CCCCCCCCCCCCCCC(CO)NC(=O)OC(C)(C)C (stereo not given)")
"80-90% lysis of parasites"
